Biological target: HLA-A*01:01
Experiment: IEDB peptide-MHC binding, purified MHC/direct/fluorescence; filed as Kd, often an IC50 or EC50 that approximates it; bounds were set here for any values at or beyond the usual limits of such assays
Conditions: source organism: West Nile virus
What pKd was measured for each of the following?
Lab note — pKd values are minus log10 of concentrations in M.

Observed pKd, HLA-A*01:01, `MTKEEFTRY` : 6.61

Tested on HLA-A*01:01: `VVEKQSGLY` . Observed pKd: 8.22

Record for `QTDNQLAVF` under target or system HLA-A*01:01: pKd reported as 6.77

Here `ITYTDVLRY` was tested on HLA-A*01:01, and its pKd came to 8.52

---

Biological target: HLA-B*15:01
Experiment: IEDB peptide-MHC binding, purified MHC/direct/fluorescence; filed as Kd, often an IC50 or EC50 that approximates it; bounds were set here for any values at or beyond the usual limits of such assays
Conditions: source organism: West Nile virus
metricName: pKd
Worth noting: pKd values are minus log10 of concentrations stated in mol/L.

pKd reported for this sequence `AMFEEQNQW` : 7.77

Notebook: `TVSPSAPTY` , pKd read as 7.17

For reference, reported pKd for `VIQLNRKSY` stands at 6.98

Notebook: `GVIMPNGSY` , pKd read as 7.54

Given item `KVAAAGVSY` , the value recorded as its pKd is 6.78

Lab note: `YQPEREKVY` gave pKd of 7.10

Input `LMNDPGAPW` . Output pKd: 7.40

Lab note: `LLLLVAPAY` gave pKd of 7.06

Consider `LLVAPAYSF` . Its measured pKd is 6.86

---

Record form. Attribute: pKd. Fill in for each entry.
Molecular target: HLA-A*24:03
Assay: IEDB peptide-MHC binding, purified MHC/direct/fluorescence; filed as Kd, often an IC50 or EC50 that approximates it; bounds were set here for any values at or beyond the usual limits of such assays
Conditions: source organism: West Nile virus
Reminder that pKd is minus the log10 of a molar concentration.

Quick note, pKd for `GYISTRVEL` landed at 7.35

// pKd value for `RFVLALLAF` : 6.75

pKd measured on `WMILRAISF` = 6.92

Record summary for `SYTLKLGEY` : reported pKd = 6.84

Quick note, pKd for `TYGVCAKAF` landed at 7.89

The recorded pKd for `LYAVTTAVL` is 8.10

Please fill in: pKd reported for `WYDWQQVPF` = 8.15

The sequence listed as `WFMWLGARF` shows pKd equal to 8.00

get_value(item= `RYLVKTESW` , readout=pKd) returns 8.40

response.value for `SYHDRRWCF` (field: pKd) = 8.05

pKd recorded for this sequence, `EYVGKTVWF` , is 7.59

---

Target: HLA-A*03:01
Assay: IEDB peptide-MHC binding, purified MHC/direct/fluorescence; filed as Kd, often an IC50 or EC50 that approximates it; bounds were set here for any values at or beyond the usual limits of such assays
Conditions: source organism: West Nile virus
metricName: log10 of Kd (log10 of the value in nM)
Hello, just confirming the data are log10 of Kd with units of nM.

Field log10 of Kd (entry `VLWDTPSPK` ) reads 2.07

The sequence listed as `GLYKSAPRR` has a reported log10 of Kd of 1.57

Given item `VLRKRWTAK` , the value recorded as its log10 of Kd is 1.63

Lookup result for `LTYRHKVVK` ; measured log10 of Kd: 1.97

Input `VLSLIGLKR` . Output log10 of Kd: 2.68

Summary for this sequence, `MVGVGSLVK` : log10 of Kd is 2.58

---

Biological target: HLA-B*58:01
Experiment: IEDB peptide-MHC binding, purified MHC/direct/fluorescence; filed as Kd, often an IC50 or EC50 that approximates it; bounds were set here for any values at or beyond the usual limits of such assays
Conditions: source organism: West Nile virus
metricName: pKd
pKd here: minus log base 10 of the concentration, concentration in moles per litre.

For this sequence ( `GSRAIWFMW` ), measured pKd is 7.06

// pKd value for `RAWNSGYEW` : 7.80

For record `ISGKSTDMW` the listed pKd is 7.04

Entry `LAVSAYTPW` , pKd reported as 7.96

Entry under test: `KSFLVHREW` . Its pKd was 7.96

Value of measured pKd for the entry `RVLEMVEDW` : 8.40

Measured pKd, `VSRLEHQMW` : 7.25

Measured pKd of `LAALGDTAW` : 7.18

For this sequence ( `KSYAQMWLL` ), measured pKd is 8.10

---

Biological target: HLA-A*26:01
Experiment: IEDB peptide-MHC binding, purified MHC/direct/fluorescence; filed as Kd, often an IC50 or EC50 that approximates it; bounds were set here for any values at or beyond the usual limits of such assays
Conditions: source organism: West Nile virus
Assign labels as follows, please: true (1) for Kd below 5 nM; false (0) for Kd equal to or exceeding 5 nM.

Prompt: A record lists `ETTNWLWAF` . Is its Kd below 5 nM?
Completion: true (1)

Prompt: Threshold test, Kd < 5 nM: `MTRGLLGSY`
Completion: false (0)

Prompt: Lab note: Kd threshold 5 nM. Does this sequence come in strictly under it? `FCIKVLCPY`
Completion: false (0)

Prompt: Say whether its Kd is strictly beneath 5 nM. Entry: `HTTKGAALM`
Completion: false (0)

Prompt: Decide: Kd of `DTITNVTTM` strictly below 5 nM?
Completion: true (1)

---

For each of the sequences below, state its Kd.
Molecular target: HLA-B*07:02
Assay: IEDB peptide-MHC binding, purified MHC/direct/fluorescence; filed as Kd, often an IC50 or EC50 that approximates it; bounds were set here for any values at or beyond the usual limits of such assays
Settings: source organism: West Nile virus
Numbers only; they are read as nM.

For `QPAFMVASF` the sequence record lists Kd as 71

Entry `RVYSDHQAL` ; Kd = 205

Field Kd (entry `RVIDSRKSV` ) reads 97

Form field Kd, entry `RPAADGKTV` : 97

Value of Kd reported for the sequence `HSRRSRRSL` is 47

Record summary for `RPAVGGKTV` : reported Kd = 36

GET /value?item= `IPTAAGKNL` &field=Kd returns 150

For this sequence ( `GGRAHRMAL` ), measured Kd is 63

---

Please go through the items and note down their Kd.
Molecular target: HLA-A*02:01
Assay: IEDB peptide-MHC binding, purified MHC/direct/fluorescence; filed as Kd, often an IC50 or EC50 that approximates it; bounds were set here for any values at or beyond the usual limits of such assays
Details: source organism: West Nile virus
Answer with a number only, understood to be in nM.

In plain terms, `VLCPYMPKV` has a documented Kd of 21

`FLAVGGVLL` has a reported Kd of 3

For this sequence ( `TLARGFPFV` ), measured Kd is 3

Entry `RLARAIIEL` — recorded Kd = 3

---

Biological target: HLA-B*27:05
Experiment: IEDB peptide-MHC binding, purified MHC/direct/fluorescence; filed as Kd, often an IC50 or EC50 that approximates it; bounds were set here for any values at or beyond the usual limits of such assays
Conditions: source organism: West Nile virus
Field 'label' (enum: Criterion met / Criterion not met). Set to Criterion met when Kd is strictly under 50 nM; else Criterion not met.

Prompt: Determine whether this sequence shows Kd lower than 50 nM (ties excluded): `GRLVTVNPF`
Completion: Criterion not met

Prompt: Does the reported Kd of `GRMEKKTWK` stay below 50 nM?
Completion: Criterion not met

Prompt: I wonder whether `LRWLVERRF` has Kd below 50 nM. Can you tell?
Completion: Criterion not met

Prompt: I wonder whether `RRYGGGLVR` has Kd below 50 nM. Can you tell?
Completion: Criterion not met

Prompt: Is Kd of `RRLAATTEK` strictly below 50 nM?
Completion: Criterion met

Prompt: Criterion: Kd strictly below 50 nM. Is it met by `RRSRRSLTV` ?
Completion: Criterion not met

Prompt: is_below(Kd, 50 nM) for `RRWCFDGPR` ?
Completion: Criterion met

---

Target: HLA-A*02:01
Assay: IEDB peptide-MHC binding, purified MHC/direct/fluorescence; filed as Kd, often an IC50 or EC50 that approximates it; bounds were set here for any values at or beyond the usual limits of such assays
Details: source organism: West Nile virus
pKd: −log10 of the molar value.
Provide the recorded pKd for the entries that follow.

Observed pKd on HLA-A*02:01, entry `GMSWITQGL` , equals ≥ 9.00

For `SLFGGMSWI` on HLA-A*02:01, measured pKd was ≥ 9.00

GET /values?item= `ILLWEIPDV` &system= HLA-A*02:01 returns pKd: ≥ 9.00
